System: HCI-003.E2 (organoid from an ER-positive breast cancer xenograft)
experimental_details: CTG-3D luminescence at 96 h relative to day-0 seeding control (ratio to day 0); higher = more growth / less cytotoxicity; PDxO 3D drug screen, 96 h, CTG-3D normalised to day-0 seeding control.
experimental_context: 100 µM
measurement_kind: CTG-3D luminescence at 96 h
One number for each entry.

1) CC1(C)CCC(c2ccc(Cl)cc2)=C(CN2CCN(c3ccc(C(=O)NS(=O)(=O)c4ccc(N[C@H](CCN5CCOCC5)CSc5ccccc5)c(S(=O)(=O)C(F)(F)F)c4)cc3)CC2)C1    0.0236
2) CC[C@H](NC(=O)[C@H](C)NC)C(=O)N1C[C@@H](O)C[C@H]1Cc1c(-c2[nH]c3cc(F)ccc3c2C[C@@H]2C[C@H](O)CN2C(=O)[C@H](CC)NC(=O)[C@H](C)NC)[nH]c2cc(F)ccc12    1.08
3) Cc1cc(Nc2ncc(Cl)c(Nc3ccccc3S(=O)(=O)C(C)C)n2)c(OC(C)C)cc1C1CCNCC1    0.0194

Each molecule below has a recorded value; state its CTG-3D luminescence at 96 h.
1. CS(=O)(=O)c1ccc(C(=O)Nc2ccc(Cl)c(-c3ccccn3)c2)c(Cl)c1
2. Nc1ccn([C@@H]2O[C@H](CO)[C@@H](O)C2(F)F)c(=O)n1

Response given:
0.299
0.939

* * *

Tested on: HCI-011.E2 (organoid from an ER-positive breast cancer xenograft)
experimental_details: CTG-3D luminescence at 96 h relative to day-0 seeding control (ratio to day 0); higher = more growth / less cytotoxicity; PDxO 3D drug screen, 96 h, CTG-3D normalised to day-0 seeding control.
experimental_context: 0.00025 µM; days in culture: 74
Please respond with reported CTG-3D luminescence at 96 h for every item in the list.
One number for each entry.

Each compound below has a recorded value; state its CTG-3D luminescence at 96 h.
1. NC(=O)Nc1cc(-c2cccc(F)c2)sc1C(=O)N[C@H]1CCCNC1
2. C/C=C1\NC(=O)[C@H]2CSSCC/C=C/[C@H](CC(=O)N[C@H](C(C)C)C(=O)N2)OC(=O)[C@H](C(C)C)NC1=O
3. C[C@H](NC(=O)CCC(F)(F)F)C(=O)N[C@@H]1C(=O)N(CCO)c2ncccc2-c2ccccc21
4. Cc1cc(Nc2ncc(Cl)c(Nc3ccccc3S(=O)(=O)C(C)C)n2)c(OC(C)C)cc1C1CCNCC1
5. CCc1c2c(nc3ccc(O)cc13)-c1cc3c(c(=O)n1C2)COC(=O)[C@]3(O)CC

Response given:
1. 2.16
2. 2.7
3. 2.44
4. 1.59
5. 1.84

Field CTG-3D luminescence at 96 h (system: HCI-011.E2) for entry C[C@]12CC[C@@H]3c4ccc(O)cc4C[C@@H](CCCCCCCCC[S+]([O-])CCCC(F)(F)C(F)(F)F)[C@H]3[C@@H]1CC[C@@H]2O (stereo partly specified) = 2.62

* * *

Test system: HCI-002 (organoid from a triple-negative breast cancer xenograft)
experimental_details: CTG-3D luminescence at 96 h relative to day-0 seeding control (ratio to day 0); higher = more growth / less cytotoxicity; PDxO 3D drug screen, 96 h, CTG-3D normalised to day-0 seeding control.
experimental_context: 1 µM; days in culture: 209
Binary classification by CTG-3D luminescence at 96 h, with 1 as an inclusive lower bound for 1; all other cases are -1.

As a guide, the following entries are already answered.
1. NC1(C(=O)N[C@@H](CCO)c2ccc(Cl)cc2)CCN(c2nc[nH]c3nccc2-3)CC1    1
2. Cc1cc(Nc2ncc(Cl)c(Nc3ccccc3S(=O)(=O)C(C)C)n2)c(OC(C)C)cc1C1CCNCC1    1

Challenge: Is reported CTG-3D luminescence at 96 h greater than or equal to 1 here: CS(=O)(=O)c1ccc(C(=O)Nc2ccc(Cl)c(-c3ccccn3)c2)c(Cl)c1
Response given: 1
